- Assayed System: Rap guanine nucleotide exchange factor 4 (Homo sapiens) (UniProt Q8WZA2)
- Sequence (Q8WZA2 whole entry, looked up): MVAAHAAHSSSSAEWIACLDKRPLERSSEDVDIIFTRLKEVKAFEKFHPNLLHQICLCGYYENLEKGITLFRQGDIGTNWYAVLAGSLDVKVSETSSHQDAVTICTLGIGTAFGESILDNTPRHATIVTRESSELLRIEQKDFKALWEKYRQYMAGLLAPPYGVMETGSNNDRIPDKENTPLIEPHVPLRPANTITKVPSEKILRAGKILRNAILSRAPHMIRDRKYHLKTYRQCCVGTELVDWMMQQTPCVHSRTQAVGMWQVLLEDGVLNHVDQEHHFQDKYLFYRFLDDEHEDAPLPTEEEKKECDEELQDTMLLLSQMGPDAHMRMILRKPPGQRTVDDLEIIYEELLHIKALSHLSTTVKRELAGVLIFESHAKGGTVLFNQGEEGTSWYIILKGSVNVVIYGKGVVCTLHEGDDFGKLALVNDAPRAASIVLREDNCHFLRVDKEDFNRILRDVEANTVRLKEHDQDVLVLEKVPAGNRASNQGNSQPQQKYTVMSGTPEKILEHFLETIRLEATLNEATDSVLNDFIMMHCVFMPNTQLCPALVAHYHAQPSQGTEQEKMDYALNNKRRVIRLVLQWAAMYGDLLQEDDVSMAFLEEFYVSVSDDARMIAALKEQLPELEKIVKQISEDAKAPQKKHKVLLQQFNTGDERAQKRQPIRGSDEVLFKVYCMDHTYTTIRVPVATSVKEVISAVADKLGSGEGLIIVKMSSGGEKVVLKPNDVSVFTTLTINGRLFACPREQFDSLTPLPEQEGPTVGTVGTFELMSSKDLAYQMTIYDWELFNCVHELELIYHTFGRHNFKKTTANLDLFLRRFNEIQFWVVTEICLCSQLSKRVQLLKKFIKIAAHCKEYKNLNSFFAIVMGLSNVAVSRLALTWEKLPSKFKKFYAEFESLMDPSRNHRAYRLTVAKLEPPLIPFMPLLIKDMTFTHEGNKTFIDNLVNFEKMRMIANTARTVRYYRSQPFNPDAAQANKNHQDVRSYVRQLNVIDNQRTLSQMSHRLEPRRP
- Assay Comment: Confirmatory qHTS for antagonist of cAMP-regulated guanine nucleotide exchange factor 4 (EPAC2) (AID 1645885); note: nearly all actives have a fitted effect of over 25% in size
- Reported Conditions: EPAC2 Rap1B-BODIPY-GDP exchange fluorescence, biochemical; series mostly up to 12.7 µM
Records with an inconclusive call do not appear. Calls of active or inactive are those of the source. Calls come from the whole dose curve; as a rule, active = well fitted inhibition curve with a large enough effect; inconclusive = small, poorly fitted or top-dose-only effect; inactive = no such curve, though single readings can be large or run the other way.
Your answer must be one of the following: 1 for active, -1 for inactive

The examples below pair each entry with its known result.
Compound: Cc1ccc(C)c(Oc2nc3c(c(=O)n(C)c(=O)n3C)n2Cc2ccccc2)c1
Group Label: -1

Compound: C[C@H]1CN([C@@H](C)CO)C(=O)CCCn2cc(nn2)CO[C@@H]1CN(C)S(=O)(=O)c1ccc(-n2cccn2)cc1
Group Label: -1

Compound: O=c1cnc2cnc(OCc3ccccc3)nc2n1CCc1ccccc1
Group Label: 1

Compound: CC1(C)C(OC(=O)CCC(=O)O)CC[C@]2(C)C1CC[C@@]1(C)C2C(=O)C=C2[C@@H]3C[C@@](C)(C(=O)O)CC[C@]3(C)CCC21C (stereo not given in full)
Group Label: 1

## Input Identify the outcome logged in this assay for the compound shown: OCc1ccc(-c2ccccc2)c(-c2ccccc2)c1
## Output -1
